Test System: T1, recombinant human ROR1 extracellular domain (human, UniProt Q01973 30-406)
T1 construct: biotinylated for the filter lifts; also called huROR1-ECD; human ROR1-ECD
T1 sequence (Q01973 30-406 limits assumed): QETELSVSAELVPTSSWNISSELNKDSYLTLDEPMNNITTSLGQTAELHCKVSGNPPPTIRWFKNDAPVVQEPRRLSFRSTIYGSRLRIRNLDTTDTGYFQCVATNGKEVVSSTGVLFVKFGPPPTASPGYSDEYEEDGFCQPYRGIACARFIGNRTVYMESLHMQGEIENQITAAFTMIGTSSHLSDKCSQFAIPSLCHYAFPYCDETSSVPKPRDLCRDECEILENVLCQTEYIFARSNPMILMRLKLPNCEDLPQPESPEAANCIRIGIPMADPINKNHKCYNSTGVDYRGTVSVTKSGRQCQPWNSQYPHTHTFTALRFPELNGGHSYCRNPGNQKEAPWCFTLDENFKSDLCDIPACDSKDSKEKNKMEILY
Assay Method Text: ELISA, soluble Fab on coated huROR1-ECD
API: label(entry) gives met if the entry's Kd is strictly smaller than 100 nM; on equality or larger values it gives not met.

Consider the following illustrative entries.
[[record]]
binder = "Ab1 Fab variant H3 W110Y (Fab, V domains shown, Fab) VH: QVQLQESGPGLVKPSQTLSLTCTVSGYAFTAYNIHWVRQAPGQGLEWMGSFDPYDGGSSYNQKFKDRLTISKDTSKNQVVLTMTNMDPVDTATYYCARGYYYFDYWGHGTLVTVSS VL: DIVMTQTPLSLPVTPGEPASISCRASKSISKYLAWYQQKPGQAPRLLIYSGSTLQSGIPPRFSGSGYGTDFTLTINNIESEDAAYYFCQQHDESPYTFGEGTKVEIK"
discrete_label = "met"

[[record]]
binder = "Ab1 Fab variant H3 W110M (Fab, V domains shown, Fab) VH: QVQLQESGPGLVKPSQTLSLTCTVSGYAFTAYNIHWVRQAPGQGLEWMGSFDPYDGGSSYNQKFKDRLTISKDTSKNQVVLTMTNMDPVDTATYYCARGMYYFDYWGHGTLVTVSS VL: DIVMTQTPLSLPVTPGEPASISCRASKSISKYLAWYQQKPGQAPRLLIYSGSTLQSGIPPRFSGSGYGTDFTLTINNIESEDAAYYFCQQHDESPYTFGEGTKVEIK"
discrete_label = "not met"

[[record]]
binder = "Ab1 Fab variant H3 W110H (Fab, V domains shown, Fab) VH: QVQLQESGPGLVKPSQTLSLTCTVSGYAFTAYNIHWVRQAPGQGLEWMGSFDPYDGGSSYNQKFKDRLTISKDTSKNQVVLTMTNMDPVDTATYYCARGHYYFDYWGHGTLVTVSS VL: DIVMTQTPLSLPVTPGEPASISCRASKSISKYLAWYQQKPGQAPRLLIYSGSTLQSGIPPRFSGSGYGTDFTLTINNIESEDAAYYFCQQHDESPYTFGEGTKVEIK"
discrete_label = "not met"

[[record]]
binder = "Ab1 Fab variant H3 W110F (Fab, V domains shown, Fab) VH: QVQLQESGPGLVKPSQTLSLTCTVSGYAFTAYNIHWVRQAPGQGLEWMGSFDPYDGGSSYNQKFKDRLTISKDTSKNQVVLTMTNMDPVDTATYYCARGFYYFDYWGHGTLVTVSS VL: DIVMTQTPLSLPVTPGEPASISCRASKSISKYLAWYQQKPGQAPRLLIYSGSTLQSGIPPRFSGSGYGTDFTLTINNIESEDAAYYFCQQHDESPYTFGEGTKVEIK"
discrete_label = "met"


As a next step, examine the binder that follows.
Does Ab1 Fab (Fab, V domains shown, Soluble Fab from an M13 phage vector in E. coli: VL + kappa constant region, VH + human CH1 + His and HA tags; also called WT; parental Fab) VH: QVQLQESGPGLVKPSQTLSLTCTVSGYAFTAYNIHWVRQAPGQGLEWMGSFDPYDGGSSYNQKFKDRLTISKDTSKNQVVLTMTNMDPVDTATYYCARGWYYFDYWGHGTLVTVSS VL: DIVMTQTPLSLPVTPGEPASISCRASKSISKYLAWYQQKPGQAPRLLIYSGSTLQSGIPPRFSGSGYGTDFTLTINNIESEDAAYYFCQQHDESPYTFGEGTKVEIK have Kd strictly under 100 nM?
met
